- Assay Comment: yeast display, Sf9 membrane polyspecificity reagent, FACS + sequencing; frameworks hold sequencing errors

Ordered Residues | polyreactivity (PSR sort gate)
QVQLVESGGGLVQAGGSLRLSCAASGFIFFYYAMGWYRQAPGKERELVASINWSGGRTYYADSVKGRFTISRDNAKNTVYLQMNSLKPEDTAVYYCAADRRFSTYDYWGQGTQVTVSS | high polyreactivity
QVQLVESGGGLLQAGGSLRLSCAASVRIFYGYAMGWYRPAPGKERELVAAIDSVGDTYYADSVKGRFTISRDNAKNTVYLQMNSLNPEDTAVYYCAADRTGGIVLSPTDEMDYWGQGTQVTVSS | low polyreactivity
QVQLVESGGGLVQAGGSLRLSCAASGSIFYENMGWYRQAPGKERELVASISWSGTSTYADSVKGRFTISRDNAKNTVYLQMNSLKPEDTAVYYCAAGKNGYTYSRSYSYGYWGQGTQVTVSS | high polyreactivity
QVQLVESGGGLVQAGGSLRLSCAASGFTFVGNAMGWYRQAPGQERELVAAITRGGSTYYADSVKGRFTISRDNAKNTVYLQMNSLKPEDTAVYYCNAELPVHWSWYDYWGQGTQVNVSS | low polyreactivity
QVQLVESGGGLVQAGGSLRLSCAASGRIFKTYAMGWYRQAPGKERELVAAITASGGRTYDADSVKGRFTISRDNAKNTVYLQMNSLTPEDTAVYYSAAPLLRDLRSPYSYNYWGQGTQVTVSS | low polyreactivity

----------
- Assay Comment: yeast display, Sf9 membrane polyspecificity reagent, FACS + sequencing; frameworks hold sequencing errors
Endpoint Label: polyreactivity (PSR sort gate)

Ordered Residues | Val
QVQLVESGGGLVQAGGSLRLSCAPSGRTFGSNTMGLYRQAPGKEIELVAGITFSSGSTYYADSVKGRFTISRDNANNTVYLQMNSLKPEDTAVYDCAVRNASKNRKYYYWGQGTQVTVSS | high polyreactivity
QVQLEESGGRLVQAGGSLRLSCAASGRTFYPYAMGWYRQAPGKERELVAAISYRGGSTYYADSVKGRFTISRDNAKNTVYLQMNSLKPEDTAVYYCAKRGYASGSKWDYGYWGQGTQVTVSS | high polyreactivity
QIQLEESGGGLVQAGGSLRLSCAASGSIFDYNTMGWYSQAPGKERELVAAISSSGGSTYYADSVKGRFTISRDNAKNSVYLQMNSLKPEDTAVYYCAAVNGYQYPPYYFNGYDYWGQGTQVTVSS | low polyreactivity
QVQLVESGGGLVQAGGSLRLSCAASGSIFGYYAMGWYRQAPGKERELVARISYSGGTTYYADSVKGRFTISRDNAKNTVYLQMNSLKPEATAVYYCNARIPYSWRYGYWGQGTQVTVSS | high polyreactivity
QVQLVESGGGLVQAGGSLRLSCAASGFTFRGYAMGWYRQAPGIERELVATISRRAASTYYADTVKGRFTISRDNAKNTVYLLMNSLKPEDTAVYYCAKVNRYDDDRDGFGYWGHGTQVTVSS | high polyreactivity
QVQLVESGGGLVQAGGSLRLSCAASGRTFRKYTMGWYRQAPGKEREFVAAITYSGGSTYYADSVKGRFTISRDNAKNTGYLQMNSLKPEDTAVSYCFTRGGYYLYYSYYYWGQGTQVTVSS | high polyreactivity
QVQLVESGGVLVQAGGSLRLSCAASRSTFTSYAMGWSRQAPGKERELVADISFSGGSTYYADSVKGRFTISRDIAKNSVYSQMNRLTPEDTAVYSCAARIYKRYYWGQGTQVTVSS | high polyreactivity
QVQLVESGGGLVQPGGSLRLIFAASGSIFHYNAIGWYTQAPGKEREFVAVISKSSGSTFYADSVKGRFTISRDNAKNTVYLQMNSLKPEDTAVYYCNLVTKRYPIIGNYWGQGSQVTVSS | high polyreactivity
QVQLVESGGGLVQAGGSLRLSCAASGSTWWYDMGSYRQAPGKERELVASISSGDSTNYADSVKGRFTISRDNAKNTVYLQMNSLKPEDTAVYYCAADFNFGFVWGDDYDYWGQGTQVTVSS | low polyreactivity
QVQLVESGGGLVQAGGSLRLSCAASGFIFYRKTMGWYRQAPGKERELDAAISVSGGSTNYADSVKGRFTISRDNAKNTVYLQMNSLKPEDTAVYYCAARVRDSLVYGGWDDYWGQGTQVTVSS | high polyreactivity
QVQLVESGGGLVQAGGSLRLSCAASGRIFPYYAMGWYRQAPGKERELVAAITSGGTTYYADSVKGRFTISRDNAKNTVYLQMNSLKPEDTAVYYCNAVGTPVKISTDRGYWGQGTQVTVSS | low polyreactivity
